System: LNCaP tumor-transplanted mouse
Experiment: Internal radioactivity distribution using LNCaP tumor-transplanted mouse
Format: in vivo
Conditions: 24 h after administration
measuredMetric: Lung (% ID/g)
// note: answer is a bare numeric in % ID/g

Known Lung results, listed for orientation:
* O=C(O)CC[C@H](NC(=O)N[C@@H](CCCCNC(=O)[C@H](Cc1ccc2ccccc2c1)NC(=O)[C@H]1CC[C@H](CNC(=O)CCC(C(=O)O)N2CCN(CC(=O)O)CCN(C(CCC(=O)N[C@@H](CCCCNC(=O)CCCc3ccc(I)cc3)C(=O)O)C(=O)O)CCN(CC(=O)O)CC2)CC1)C(=O)O)C(=O)O (stereo partly drawn) [[^111In]In-PSMA-NAT-DA1, metal not drawn] | 8.76
* O=C([O-])CN(CCN(CCc1ccc(NC(=O)[C@H](CCCCNC(=O)CCC(=O)NCCCC[C@H](NC(=O)N[C@@H](CCC(=O)O)C(=O)O)C(=O)O)NC(=O)CCCc2ccc(I)cc2)cc1)CCN(CC(=O)[O-])Cc1cccc(C(=O)[O-])n1)Cc1cccc(C(=O)[O-])n1.[111In+3] [[^111In]In-Neunpa-2] | 2.26
* O=C([O-])CN(Cc1cccc(C(=O)[O-])n1)C[C@H](Cc1ccc(NC(=O)[C@H](CCCCNC(=O)CCC(=O)NCCCC[C@H](NC(=O)N[C@@H](CCC(=O)O)C(=O)O)C(=O)O)NC(=O)COCCOCCOCC(=O)N[C@@H](CCCCNC(=O)CCCc2ccc(I)cc2)C(=O)O)cc1)N(CC(=O)[O-])Cc1cccc(C(=O)[O-])n1.[111In+3] [[^111In]In-Octapa-3] | 5.85
* O=C([O-])CN1CCN(C(CCC(=O)NCCC(=O)N2Cc3ccccc3-c3c(nnn3CCOCCOCCOCCOCCC(=O)NCCCC[C@H](NC(=O)N[C@@H](CCC(=O)O)C(=O)O)C(=O)O)-c3ccccc32)C(=O)[O-])CCN(CC(=O)[O-])CCN(C(CCC(=O)N[C@@H](CCCCNC(=O)CCCc2ccc(I)cc2)C(=O)O)C(=O)[O-])CC1.[111In+3] (stereo partly drawn) [[^111In]In-PtDA] | 8.63
* O=C([O-])CN1CCN(C(CCC(=O)NCCCC[C@H](NC(=O)N[C@@H](CCC(=O)O)C(=O)O)C(=O)O)C(=O)[O-])CCN(CC(=O)[O-])CCN(C(CCC(=O)Nc2ccccc2)C(=O)[O-])CC1.[111In+3] (stereo partly drawn) [[^111In]In-PSMA-DB, reference compound] | 0.97

Just so you know, measured Lung for O=C([O-])CN(Cc1cccc(C(=O)[O-])n1)C[C@H](Cc1ccc(NC(=O)[C@H](CCCCNC(=O)CCC(=O)NCCCC[C@H](NC(=O)N[C@@H](CCC(=O)O)C(=O)O)C(=O)O)NC(=O)CCCc2ccc(I)cc2)cc1)N(CC(=O)[O-])Cc1cccc(C(=O)[O-])n1.[111In+3] [[^111In]In-Octapa-2] came out at 0.74

###

Tested on: LNCaP tumor-transplanted mouse
Assay: Internal radioactivity distribution using LNCaP tumor-transplanted mouse
Assay type: in vivo
Settings: 1 h after administration
measuredMetric: Muscle (% ID/g)
// note: answer is a bare numeric in % ID/g

Known Muscle results, listed for orientation:
• O=C([O-])CN1CCN(C(CCC(=O)NCCC(=O)N2Cc3ccccc3-c3c(nnn3CCOCCOCCOCCOCCC(=O)NCCCC[C@H](NC(=O)N[C@@H](CCC(=O)O)C(=O)O)C(=O)O)-c3ccccc32)C(=O)[O-])CCN(CC(=O)[O-])CCN(C(CCC(=O)N[C@@H](CCCCNC(=O)CCCc2ccc(I)cc2)C(=O)O)C(=O)[O-])CC1.[111In+3] (some centres unmarked) [[^111In]In-PtDA] = 1.95
• O=C([O-])CN(CCN(CCc1ccc(NC(=O)CCCCCNC(=O)CCC(=O)NCCCC[C@H](NC(=O)N[C@@H](CCC(=O)O)C(=O)O)C(=O)O)cc1)CCN(CC(=O)[O-])Cc1cccc(C(=O)[O-])n1)Cc1cccc(C(=O)[O-])n1.[111In+3] [[^111In]In-Neunpa-1, reference compound] = 0.28
• O=C([O-])CN(Cc1cccc(C(=O)[O-])n1)C[C@H](Cc1ccc(NC(=O)[C@H](CCCCNC(=O)CCC(=O)NCCCC[C@H](NC(=O)N[C@@H](CCC(=O)O)C(=O)O)C(=O)O)NC(=O)CCCc2ccc(I)cc2)cc1)N(CC(=O)[O-])Cc1cccc(C(=O)[O-])n1.[111In+3] [[^111In]In-Octapa-2] = 1.44
• O=C([O-])CN(Cc1cccc(C(=O)[O-])n1)C[C@H](Cc1ccc(NC(=O)CCCCCNC(=O)CCC(=O)NCCCC[C@H](NC(=O)N[C@@H](CCC(=O)O)C(=O)O)C(=O)O)cc1)N(CC(=O)[O-])Cc1cccc(C(=O)[O-])n1.[111In+3] [[^111In]In-Octapa-1, reference compound] = 0.20
• O=C(O)CC[C@H](NC(=O)N[C@@H](CCCCNC(=O)[C@H](Cc1ccc2ccccc2c1)NC(=O)[C@H]1CC[C@H](CNC(=O)CCC(C(=O)O)N2CCN(CC(=O)O)CCN(C(CCC(=O)N[C@@H](CCCCNC(=O)CCCc3ccc(I)cc3)C(=O)O)C(=O)O)CCN(CC(=O)O)CC2)CC1)C(=O)O)C(=O)O (some centres unmarked) [[^111In]In-PSMA-NAT-DA1, metal not drawn] = 2.82
• O=C([O-])CN1CCN(C(CCC(=O)NCCCC[C@H](NC(=O)N[C@@H](CCC(=O)O)C(=O)O)C(=O)O)C(=O)[O-])CCN(CC(=O)[O-])CCN(C(CCC(=O)Nc2ccccc2)C(=O)[O-])CC1.[111In+3] (some centres unmarked) [[^111In]In-PSMA-DB, reference compound] = 0.23

Just so you know, measured Muscle for O=C([O-])CN1CCN(C(CCC(=O)NCCCC[C@H](NC(=O)N[C@@H](CCC(=O)O)C(=O)O)C(=O)O)C(=O)[O-])CCN(CC(=O)[O-])CCN(C(CCC(=O)N[C@@H](CCCCNC(=O)CCCc2ccc(I)cc2)C(=O)O)C(=O)[O-])CC1.[111In+3] (some centres unmarked) [[^111In]In-PSMA-DA1] came out at 2.02

Just so you know, measured Muscle for O=C([O-])CN(CCN(CCc1ccc(NC(=O)[C@H](CCCCNC(=O)CCC(=O)NCCCC[C@H](NC(=O)N[C@@H](CCC(=O)O)C(=O)O)C(=O)O)NC(=O)CCCc2ccc(I)cc2)cc1)CCN(CC(=O)[O-])Cc1cccc(C(=O)[O-])n1)Cc1cccc(C(=O)[O-])n1.[111In+3] [[^111In]In-Neunpa-2] came out at 1.09
